test system: KMM1 high-risk MM cell line; experiment: WST-1 cell proliferation inhibition (Example 8), KMM1; format: cell-based; conditions: Homo sapiens, KMM-1, WST-1, 48 hours, read-out: IC50, cell proliferation inhibitory activity, KMM1
property-label: pIC50
Please express pIC50 as -log10 of the molar concentration.

Query: // fetch pIC50; item: COCCOCCOCCOCCOCCC(=O)OCCOc1cc2c(cc1N)C(=O)N(c1c(C(C)C)cccc1C(C)C)C2=O [PEG5(E)-TC11] ; system: KMM1 high-risk MM cell line
Result: 5.44

Query: // fetch pIC50; item: CC(C)c1cccc(C(C)C)c1N1C(=O)c2ccc(N)cc2C1=O [TC11, reference compound] ; system: KMM1 high-risk MM cell line
Result: 5.24

====

Here, each record is paired with measured pIC50 data.
tested on: KMS21 high-risk MM cell line; assay: MTT cell proliferation inhibition, KMS21; format: cell-based; conditions: Homo sapiens, KMS21, t(11;14), 48 hours, read-out: IC50, cell proliferation inhibitory activity, KMS21
Please express pIC50 as -log10 of the molar concentration.

// below: answered compounds
INSERT INTO measurements (compound, target_entity, reported_result) VALUES
  ('COCCOCCOCCOCCOCCOCCOCCOCCOCCOCCOCCOCCC(=O)OCCOc1cc2c(cc1N)C(=O)N(c1c(C(C)C)cccc1C(C)C)C2=O [PEG11(E)-TC11]', 'KMS21 high-risk MM cell line', 5.80),
  ('CC(C)c1cccc(C(C)C)c1N1C(=O)c2ccc(N)cc2C1=O [TC11, reference compound]', 'KMS21 high-risk MM cell line', 5.55),
  ('COCCOCCOCCOCCOCCOCCOCCOCCOCCOCCOCCOCCOc1cc2c(cc1N)C(=O)N(c1c(C(C)C)cccc1C(C)C)C2=O', 'KMS21 high-risk MM cell line', 4.64);

Query: // fetch pIC50; item: CC(C)c1cccc(C(C)C)c1N1C(=O)c2cc(N)c(OCCO)cc2C1=O [HOEtO-TC11, hydroxyethoxy-TC11] ; system: KMS21 high-risk MM cell line
Result: 5.62

====

assay: Mouse blood kinetics upon single intraperitoneal administration; format: in vivo; conditions: male, ICR, plasma, ip, mice, single intraperitoneal TC11 60 mg/kg BW, read-out: tmax, time at which the blood level reached the highest level
property-label: Tmax (h)
Field: numeric (h). Do not append units.

Query: Identify Tmax associated with the compound CC(C)c1cccc(C(C)C)c1N1C(=O)c2ccc(N)cc2C1=O [TC11, reference compound]
Result: 1.5

====

Here, each record is paired with measured IC50 data.
test system: KMS34 (human myeloma cells); assay: WST-1 proliferation assay (Example 10), KMS34; type: cell-based; conditions: KMS-34, WST-1, 48 hours
Field: numeric (µM). Do not append units.

Query: Identify IC50 associated with the compound COCCOCCOCCOCCOCCOCCOCCOCCOCCOCCOCCOCCC(=O)OCCOc1cc2c(cc1N)C(=O)N(c1c(C(C)C)cccc1C(C)C)C2=O [PEG11(E)-TC11]
Result: 0.67

Query: Identify IC50 associated with the compound COCCOCCOCCOCCOCCOCCOCCOCCOCCOCCOCCOCCOc1cc2c(cc1N)C(=O)N(c1c(C(C)C)cccc1C(C)C)C2=O
Result: 16

Query: Identify IC50 associated with the compound CC(C)c1cccc(C(C)C)c1N1C(=O)c2ccc(N)cc2C1=O [TC11, reference compound]
Result: 2.6

Where these numbers come from: patent US20190315775A1
